- ASSAY_EXPLANATION: gradient 5% acetonitrile 3 min, to 50% in 2 min, to 85% in 15 min, held 3 min, 100 µL/min
- PROTOCOL_CONDITIONS: column: Zorbax Extend-C18 2.1 x 50 mm; eluents: water / acetonitrile, 0.1% formic acid
READOUT_NAME: RP-LC retention time (s)
All answers are understood in s, so give the number only.

Below: 2 compounds and their reported RP-LC retention time.
> print(dat)
                                   compound          readout.name  observed.measurement
1  COc1ccc(-c2nnc(-c3ccccc3)o2)cc1S(=O)(=O)N1CCCCC1  RP-LC retention time                  1020
2  CCOC(=O)C1CCN(c2cc3c(cc2NC(=O)c2ccco2)n(C)c(=O)n3C)CC1  RP-LC retention time                   904

// moving on: another record for RP-LC retention time
Measured RP-LC retention time of Cc1ccc(C)c(NC(=O)C2CCCN(S(=O)(=O)c3c[nH]c(C(=O)N4CCCCCC4)c3)C2)c1 (stereo not given) : 923
